Test: self-splicing fitness, log relative to wild type (ln ratio); higher = more splicing; Tetrahymena group I intron in knt gene, E. coli kanamycin selection, DiMSum; sequences stand for … in CUCUCU…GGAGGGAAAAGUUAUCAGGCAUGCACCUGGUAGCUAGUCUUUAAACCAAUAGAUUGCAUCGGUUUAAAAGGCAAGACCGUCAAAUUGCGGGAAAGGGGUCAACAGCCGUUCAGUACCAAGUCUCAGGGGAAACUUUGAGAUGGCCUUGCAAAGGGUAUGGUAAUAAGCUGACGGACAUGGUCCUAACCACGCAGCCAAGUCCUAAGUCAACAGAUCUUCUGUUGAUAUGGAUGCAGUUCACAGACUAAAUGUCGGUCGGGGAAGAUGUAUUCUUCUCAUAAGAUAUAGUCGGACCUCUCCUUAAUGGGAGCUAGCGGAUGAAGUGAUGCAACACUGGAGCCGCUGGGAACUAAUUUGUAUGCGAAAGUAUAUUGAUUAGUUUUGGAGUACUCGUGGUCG;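 also: selection with 25 µg/mL kanamycin versus none on LB agar overnight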
Conditions: 37 °C
So basically: self-splicing fitness (ln) at -2 or higher? That is true (1). Lower than -2? That is false (0).

seq=CCGAAGCAAUAUUACGCCAG class="true (1)"
seq=UUAAAGCAAUAUUACGAGCG class="true (1)"
seq=AGAUAGCAAUAUUACGAGAU class="true (1)"
seq=CUCCAGCAAUAUUACGGUGU class="false (0)"
seq=UUAGAGCAAUAUUACGACAU class="true (1)"
seq=UAAAAGCAAUAUUACGUCUA class="true (1)"
seq=CUCUAGCAAUAUUACGCGAC class="false (0)"
seq=CGUCAGCAAUAUUACGCUGA class="true (1)"

----------
Assay: self-splicing fitness, log relative to wild type (ln ratio); higher = more splicing; Tetrahymena group I intron in knt gene, E. coli kanamycin selection, DiMSum; sequences stand for … in CUCUCU…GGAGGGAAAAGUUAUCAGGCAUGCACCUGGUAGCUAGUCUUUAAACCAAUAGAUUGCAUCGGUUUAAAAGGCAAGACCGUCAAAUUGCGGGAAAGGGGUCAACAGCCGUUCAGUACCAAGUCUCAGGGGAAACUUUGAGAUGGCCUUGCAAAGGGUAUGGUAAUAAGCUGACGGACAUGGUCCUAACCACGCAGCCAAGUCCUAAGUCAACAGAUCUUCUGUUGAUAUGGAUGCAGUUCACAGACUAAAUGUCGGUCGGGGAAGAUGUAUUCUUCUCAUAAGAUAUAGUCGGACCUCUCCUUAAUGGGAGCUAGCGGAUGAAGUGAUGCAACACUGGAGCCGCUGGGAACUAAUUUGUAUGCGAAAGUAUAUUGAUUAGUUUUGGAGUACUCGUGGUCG
Details: 30 °C
So basically: self-splicing fitness (ln) at -3 or higher? That is fulfilled. Lower than -3? That is not fulfilled.

seq=UUCAAGCAAUAUUACGUGCA class=fulfilled
seq=GUUCAGCAAUAUUACGUGGA class="not fulfilled"
seq=CUUCAGCAAUAUUACGCUGU class="not fulfilled"
seq=GGGGAGCAAUAUUACGGCUG class=fulfilled
seq=GGCCAGCAAUAUUACGCCCA class=fulfilled
seq=AUGUAGCAAUAUUACGCCUA class=fulfilled
seq=CUCUAGCAAUAUUACGGCUU class="not fulfilled"
seq=CCACAGCAAUAUUACGGAGC class="not fulfilled"

----------
Test: self-splicing fitness, log relative to wild type (ln ratio); higher = more splicing; Tetrahymena group I intron in knt gene, E. coli kanamycin selection, DiMSum; sequences stand for … in CUCUCU…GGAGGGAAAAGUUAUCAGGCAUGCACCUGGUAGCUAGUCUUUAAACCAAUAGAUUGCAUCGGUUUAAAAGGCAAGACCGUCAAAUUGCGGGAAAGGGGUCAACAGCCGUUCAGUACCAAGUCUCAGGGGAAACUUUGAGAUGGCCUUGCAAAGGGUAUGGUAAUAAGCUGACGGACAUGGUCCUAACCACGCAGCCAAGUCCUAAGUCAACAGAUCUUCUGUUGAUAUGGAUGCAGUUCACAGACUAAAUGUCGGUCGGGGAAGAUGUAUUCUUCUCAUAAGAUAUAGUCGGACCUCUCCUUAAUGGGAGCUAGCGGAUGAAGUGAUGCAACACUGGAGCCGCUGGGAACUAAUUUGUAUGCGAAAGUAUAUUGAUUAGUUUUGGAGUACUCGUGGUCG
Details: 37 °C
So basically: self-splicing fitness (ln) at -0.8 or higher? That is class 1. Lower than -0.8? That is class 0.

seq=UGUGAGCAAUAUUACGUAUG class="class 0"
seq=GAAUAGCAAUAUUACGUGGA class="class 0"
seq=UUCAAGCAAUAUUACGUUAU class="class 0"
seq=CGAGAGCAAUAUUACGAUCC class="class 0"
seq=GGGCAGCAAUAUUACGUAGU class="class 1"
seq=AUCAAGCAAUAUUACGUAAU class="class 1"

----------
Experiment: self-splicing fitness, log relative to wild type (ln ratio); higher = more splicing; Tetrahymena group I intron in knt gene, E. coli kanamycin selection, DiMSum; sequences stand for … in CUCUCU…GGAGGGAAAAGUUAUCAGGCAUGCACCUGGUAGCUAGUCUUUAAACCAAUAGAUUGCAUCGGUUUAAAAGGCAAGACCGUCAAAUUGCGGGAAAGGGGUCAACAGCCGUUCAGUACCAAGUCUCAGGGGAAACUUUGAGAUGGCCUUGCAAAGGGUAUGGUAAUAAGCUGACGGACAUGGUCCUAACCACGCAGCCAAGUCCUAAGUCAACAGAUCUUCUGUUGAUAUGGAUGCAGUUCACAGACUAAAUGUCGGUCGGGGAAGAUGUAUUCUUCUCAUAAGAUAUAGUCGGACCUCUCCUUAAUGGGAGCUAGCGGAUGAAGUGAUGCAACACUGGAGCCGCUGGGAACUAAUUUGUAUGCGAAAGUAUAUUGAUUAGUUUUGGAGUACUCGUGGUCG
Settings: 37 °C
# reported self-splicing fitness (ln); entries follow
observable: self-splicing fitness (ln)

seq=UUGCAGCAAUAUUACGUGGC measured_number=-2.93
seq=GGGAAGCAAUAUUACGUCAC measured_number=-1.77
seq=CUCCAGCAAUAUUACGGGAA measured_number=-0.479
seq=CUGUAGCAAUAUUACGCCUG measured_number=0.521
seq=CAGAAGCAAUAUUACGGCAU measured_number=-1.95
seq=CGAGAGCAAUAUUACGAGCG measured_number=-1.72
seq=AAUCAGCAAUAUUACGUUGU measured_number=-1.68
seq=UCCGAGCAAUAUUACGGUGU measured_number=-2.28
seq=UGAAAGCAAUAUUACGCUGU measured_number=-1.73
seq=CGCUAGCAAUAUUACGCCAA measured_number=-0.881
seq=ACCGAGCAAUAUUACGACGA measured_number=-0.75
seq=GGCUAGCAAUAUUACGGUUA measured_number=0.606
seq=GGCCAGCAAUAUUACGGCGC measured_number=-1.57
seq=GAUGAGCAAUAUUACGCUUG measured_number=-1.07
seq=GCCAAGCAAUAUUACGAAUC measured_number=-1.5
seq=GAUUAGCAAUAUUACGAUAG measured_number=-1.1

----------
# reported self-splicing fitness (ln); entries follow
Assay: self-splicing fitness, log relative to wild type (ln ratio); higher = more splicing; Tetrahymena group I intron in knt gene, E. coli kanamycin selection, DiMSum; sequences stand for … in CUCUCU…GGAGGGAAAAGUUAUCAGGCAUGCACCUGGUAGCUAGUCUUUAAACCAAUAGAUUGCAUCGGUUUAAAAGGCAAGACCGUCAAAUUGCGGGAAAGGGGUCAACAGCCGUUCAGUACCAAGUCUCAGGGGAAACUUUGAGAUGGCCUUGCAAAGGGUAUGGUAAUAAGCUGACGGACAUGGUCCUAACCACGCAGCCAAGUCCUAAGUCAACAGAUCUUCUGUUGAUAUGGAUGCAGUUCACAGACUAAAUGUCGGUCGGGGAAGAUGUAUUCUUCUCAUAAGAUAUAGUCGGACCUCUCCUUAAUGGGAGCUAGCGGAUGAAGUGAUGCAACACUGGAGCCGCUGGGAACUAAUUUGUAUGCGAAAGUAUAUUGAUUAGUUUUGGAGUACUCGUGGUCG
Settings: 30 °C
observable: self-splicing fitness (ln)

seq=CGAGAGCAAUAUUACGAACG observable="self-splicing fitness (ln)" measured_number=-2.48
seq=ACACAGCAAUAUUACGAUCU observable="self-splicing fitness (ln)" measured_number=-0.658
seq=GGCCAGCAAUAUUACGCGUG observable="self-splicing fitness (ln)" measured_number=-1.22
seq=CGGGAGCAAUAUUACGUUGU observable="self-splicing fitness (ln)" measured_number=-4.45
seq=CCUGAGCAAUAUUACGAAAG observable="self-splicing fitness (ln)" measured_number=-2.39
seq=UCGCAGCAAUAUUACGCUCC observable="self-splicing fitness (ln)" measured_number=-2.9
seq=UCCCAGCAAUAUUACGUGCA observable="self-splicing fitness (ln)" measured_number=-0.634
seq=CCUGAGCAAUAUUACGUGGU observable="self-splicing fitness (ln)" measured_number=-3.09
seq=CAACAGCAAUAUUACGCUUC observable="self-splicing fitness (ln)" measured_number=-3.83
seq=GAUUAGCAAUAUUACGCCUU observable="self-splicing fitness (ln)" measured_number=-0.529
seq=GCAUAGCAAUAUUACGAUAA observable="self-splicing fitness (ln)" measured_number=-2.1

All values here come from the supplement of paper PMC7877785.
